Overview of reported Fold change in RNA expression between the ON state and the OFF state across a group of molecules:
- Tested on: Renilla luciferase RNA
- PROTOCOL: Barcoded aptazyme variant library screen: un-cleaved Renilla luciferase RNA by barcode read counts, HEK293-T cells
- Format: cell-based
- RUN CONDITIONS: un-cleaved Renilla luciferase RNA, HEK293-T cells cultured with 1 mM theophylline (ON) over without theophylline (OFF); barcode read counts, triplicate
READOUT: Fold change in RNA expression between the ON state and the OFF state (fold)

>  <MOLECULE>
RA129 (nucleic acid, expressed or natural sequence) DNA: GCGCGTCCTGGATTCCACTTCGGGTACATCCAGCTGACGAGTCCCAAATAGGACGAAACGCGC

>  <UNIT SYMBOL>
fold

>  <VALUE>
1.4

$$$$
>  <MOLECULE>
RA230 (nucleic acid, expressed or natural sequence) DNA: GCGCGTCCTGAGAATACCAGCATCGTCTTGATGCCCTTGGAAGTCTCGGATTCGCGGAAACGCGTACATCCAGCTGACGAGTCCCAAATAGGACGAAACGCGC

>  <UNIT SYMBOL>
fold

>  <VALUE>
1.1

$$$$
>  <MOLECULE>
RA286 (nucleic acid, expressed or natural sequence) DNA: GCGCGTCCTGGATTCGCGGAAAAGAATACCAGCATCGTCTTGATGCCCTTGGAAGTCTCGCGTACATCCAGCTGACGAGTCCCAAATAGGACGAAACGCGC

>  <UNIT SYMBOL>
fold

>  <VALUE>
1.0

$$$$
>  <MOLECULE>
RA292 (nucleic acid, expressed or natural sequence) DNA: GCGCGTCGGAATACCAGCATCGTCTTGATGCCCTTGGAAGTCCGCCTGGATTCGCGGAAACGCGTACATCCAGCTGACGAGTCCCAAATAGGACGAAACGCGC

>  <UNIT SYMBOL>
fold

>  <VALUE>
1.0

$$$$
